B1: F-BAR and double SH3 domains protein 1, residues 467 to 528; numbered along this chain, Q86WN1 (parent)
chain: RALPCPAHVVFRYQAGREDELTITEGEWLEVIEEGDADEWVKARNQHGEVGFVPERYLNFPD

- Variants of: B1
- test: abundance fitness (aPCA) (normalised: wild type 0, dead -1); higher = more abundant; growth selection in yeast, the domain comes from the species named
- experimental.setup: Homo sapiens
recorded.metric: abundance fitness
Lab note: jot the number down without any unit.

Challenge: Tell me measured abundance fitness for `E33C` please.
Response given: -0.05

Challenge: Tell me measured abundance fitness for `L3T` please.
Response given: -0.201

Challenge: Tell me measured abundance fitness for `D38A` please.
Response given: 0.057

Challenge: Tell me measured abundance fitness for `V9Y` please.
Response given: -0.631

Challenge: Tell me measured abundance fitness for `G35S` please.
Response given: -0.07

Challenge: Tell me measured abundance fitness for `G16A` please.
Response given: 0.024

Challenge: Tell me measured abundance fitness for `I23R` please.
Response given: -0.751

Challenge: Tell me measured abundance fitness for `L29K` please.
Response given: -1.06

Challenge: Tell me measured abundance fitness for `P4M` please.
Response given: -0.247

Challenge: Tell me measured abundance fitness for `R17P` please.
Response given: -0.797

Challenge: Tell me measured abundance fitness for `V41D` please.
Response given: -0.815

Challenge: Tell me measured abundance fitness for `L29V` please.
Response given: 0.102

Challenge: Tell me measured abundance fitness for `T24Y` please.
Response given: -0.153

Challenge: Tell me measured abundance fitness for `D36R` please.
Response given: -0.016

Challenge: Tell me measured abundance fitness for `E33H` please.
Response given: -0.193

Challenge: Tell me measured abundance fitness for `T22D` please.
Response given: -0.117
